These data points were gathered from PubChem BioAssay (NCI).

Kindly supply the reported growth values for the records listed here.
system: NCI-H322M lung; experiment: NCI-60 one-dose screen, 48 h (100 = growth as untreated, 0 = no growth, -100 = all killed); details: 10 µM unless noted
About 83,000 compounds went through this panel and 20% of them were active in at least one assay; those are over-represented in the sample as a whole.
Write down the numeric answer in % and omit the unit.

Quick one: growth for CCNCCCn1c2c(c3ccc([N+](=O)[O-])cc3c1=O)C(=O)c1cc(OC)cnc1-2 ?
2.15

Quick one: growth for c1csc(-c2nc(-c3cc4ccccc4c(N4CCOCC4)n3)cs2)c1 ?
94.1

Quick one: growth for NC1=C(C/C(N)=N\O)C(c2ccccc2Cl)c2c(ccc3ccccc23)O1 (stereo not drawn) ?
96.4

Quick one: growth for O=C(NCN1C(=O)c2cccc3cccc(c23)C1=O)N1CCC(Cc2ccccc2)CC1 ?
105

Quick one: growth for CC(C)(C)c1ccc(OP(=S)(N/N=C/c2ccccc2O)Oc2ccc(C(C)(C)C)cc2)cc1 ?
76.3

Quick one: growth for CCCCCCCC(=O)SCC/C=C/[C@@H]1CC(=O)NCc2cccc(n2)CN(Cc2ccc(Cl)cc2)CC(=O)N[C@@H](C(C)C)C(=O)O1 ?
8.85

Quick one: growth for Cn1c(=O)c2c(ncn2CCC(=O)Nc2ccc(F)cc2)n(C)c1=O ?
105

Quick one: growth for NS(=O)(=O)c1ccc(CCNC(=O)/C=C/c2ccc(Cl)cc2)cc1 ?
107

Quick one: growth for Cn1cc(-c2nc(-c3cn(C)c4ncccc34)cs2)c2cc(F)ccc21 ?
57

Quick one: growth for C[C@H]1[C@H]2C3=CC[C@@H]4[C@@]5(C)C/C(=C/c6ccco6)C(=O)C(C)(C)[C@@H]5CC[C@@]4(C)[C@]3(C)CC[C@@]2(C(=O)N2CCOCC2)CC[C@@H]1C ?
95.3

Quick one: growth for COc1ccc(/C=C(\C#N)c2cc3ccccc3n2S(C)(=O)=O)cc1 ?
99.6

Quick one: growth for Cn1cc(-c2csc(-c3cn(CCNC(=O)OC(C)(C)C)c4ccccc34)n2)c2cccnc21 ?
90.1

Quick one: growth for CN1CCN(CCOc2ccc(-c3cnc4c(-c5ccccc5F)cnn4c3)cc2)CC1 ?
57.9

Quick one: growth for Fc1ccc2[nH]cc(-c3nc(-c4c[nH]c5ncccc45)cs3)c2c1 ?
74.6

Quick one: growth for c1ccc(-c2nc(Nc3ccc(-c4nc5ccccc5[nH]4)cc3)nc(N3CCOCC3)n2)cc1 ?
-0.466

Quick one: growth for COc1ccc2c(c1)c(-c1nc(-c3c[nH]c4ncccc34)cs1)cn2C ?
46.6

Quick one: growth for Cc1ccc(NC2CC(=O)N(c3c(C)cc(C)cc3C)C2=O)c(C)c1 (stereo not drawn) ?
101

Quick one: growth for COC(=O)[C@]12CC[C@@H](C)[C@H](C)[C@@H]1C1=CC[C@@H]3[C@@]4(C)C[C@@H](O)OC[C@](C)(C=O)C4C(=O)C[C@@]3(C)[C@]1(C)CC2 (stereo partly drawn) ?
27.6

###

test system: ACHN renal; assay: NCI-60 one-dose screen, 48 h; settings: 10 µM unless noted
Compounds without any hit were thinned out: in the full panel of roughly 83,000, 20% have a hit. Calls of active or inactive are those of the source. Rule for the calls: active = growth percent below 10; inactive = the rest.
Your reply should match one of these outcome classes. active, inactive

Recorded call for COc1ccc2c3c(c4ccccc4cc13)C(=O)N(CCN(C)CCN)C2=O ?
active

Recorded call for Cn1cc(-c2csc(-c3cn(CCCN4CCCCC4)c4ccc(Br)cc34)n2)c2cccnc21 ?
active

Recorded call for CC(=O)OC(C)COc1ccc(-c2ccccc2)cc1 (stereo unspecified) ?
inactive

Recorded call for Cc1cc2nc3c4cc(N)ccc4n(CCN(C)C)c3nc2cc1C ?
active

Recorded call for C/C(=N\Nc1ccc2ccccc2n1)c1ccccn1 ?
active

Recorded call for CCc1cccc(CC)c1NC(=O)c1sc2nc3c(cc2c1N)CCCC3 ?
inactive

###

system: OVCAR-4 ovarian; test: NCI-60 one-dose screen, 48 h; settings: 10 µM unless noted
This is part of a sample that, as a whole, favours compounds with a hit. Of some 83,000 tested, about 20% had one in any assay. Calls of active or inactive are those of the source. Rule for the calls: active = growth percent below 10; inactive = the rest.
Your reply should match one of these outcome classes. active, inactive

Recorded call for Cc1ccc2oc(=O)cc(-c3sc(N4CCCCC4)nc3-c3ccccc3)c2c1 ?
inactive

Recorded call for CCN1CCN(C(=O)[C@@]2(C)CC[C@]3(C)CC[C@]4(C)C(=CC(=O)[C@@H]5[C@@]6(C)CC[C@H](OCCC#N)C(C)(C)[C@@H]6CC[C@]54C)[C@@H]3C2)CC1 ?
inactive

Recorded call for N#Cc1c(-c2ccc(O)cc2)c2c(N)nn(-c3ccccc3)c2[nH]c1=O ?
inactive

Recorded call for C=C1C(=O)O[C@H]2[C@H]1CC/C(COC(=O)NCc1c[nH]c3ccccc13)=C\CC[C@@]1(C)O[C@@H]21 ?
inactive

Recorded call for COc1ccc(C(=O)/C=C/c2cc(-c3cc(OC)c(OC)c(OC)c3)n[nH]2)cc1OC ?
inactive

Recorded call for c1ccc2[nH]c(-c3cc(-c4ccc5c(c4)OCO5)n[nH]3)nc2c1 ?
inactive

Recorded call for CC(=O)O[C@H]1CC[C@]2(C)[C@H]3C(=O)C=C4[C@@H]5C[C@](C)(C(=O)N6CCCNCC6)CC[C@]5(C)CC[C@@]4(C)[C@]3(C)CC[C@H]2C1(C)C ?
active

Recorded call for Cc1ccncc1C(=O)O ?
inactive

Recorded call for Clc1ccc(Cn2cc(-c3nc4ccc(Br)nc4n3Cc3ccc(Cl)cc3)c3cccnc32)cc1 ?
inactive

Recorded call for CC[C@]12C=CCN3CC[C@@]4(c5cc([C@H]6CCC(=O)N6)c(OC)cc5N(C)[C@H]4[C@@](O)(C(=O)OC)[C@@H]1OC(C)=O)[C@@H]32 ?
inactive

Recorded call for COc1cccc(-c2nn(-c3ccccc3)cc2-c2ccnc(NCCNS(=O)(=O)c3ccc(Cl)cc3)c2)c1 ?
inactive

Recorded call for COC(=O)[C@]12CC[C@@H](C)[C@H](C)[C@@H]1C1=CC[C@@H]3[C@@]4(C)C[C@@H](OC(C)=O)[C@H](O)[C@@](C)(CO)[C@@H]4[C@H](O)C[C@@]3(C)[C@]1(C)CC2 ?
active

Recorded call for COc1ccc(OC)c(-c2c(C#N)c(-c3ccco3)nc3c2c(-c2ccccc2)nn3-c2ccccc2)c1 ?
inactive

Recorded call for COc1cccc(-c2nn(-c3ccccc3)cc2-c2ccnc(NCCCO)c2)c1 ?
inactive

Recorded call for N#C/C(=C\c1ccc(-c2ccc(Cl)cc2)o1)c1nc(-c2ccco2)cs1 ?
active

Recorded call for CC1(C)c2ccccc2C(=O)C1(Br)Cc1ccccc1 (configuration not stated) ?
inactive

Recorded call for C=C(C)[C@@H]1CC[C@]2(C=NCCCNCCCCNCCCN)CC[C@]3(C)[C@H](CC[C@@H]4[C@@]5(C)CCCNC(C)(C)[C@@H]5CC[C@]43C)[C@@H]12 ?
inactive

###

Kindly supply the reported growth values for the records listed here.
System: 786-0 renal
Test: NCI-60 one-dose screen, 48 h (100 = growth as untreated, 0 = no growth, -100 = all killed)
Conditions: 10 µM unless noted
Protocol: Cells are grown in 96 well plates and exposed to the test compound for 48 hours. Compounds are tested at a single concentration, which is 10^-5 M for most compounds. The reported endpoint is percent growth (GI% or GIPRCNT), where numbers from 0 - 100% represent growth inhibition, and numbers from -100% - 0 represent cell death. For example, a value of 40 represents 60% growth inhibition. A value of 0 means no net growth occurred over the course of the experiment. […]
The panel holds about 83,000 compounds, 20% with a hit somewhere; the sample as a whole holds those more often. Calls of active or inactive are those of the source. The calls were made as follows: active = growth percent below 10; inactive = the rest.

Quick one: growth for COc1ccc(C2NC(=O)Nc3ccccc32)c(OC)c1 (stereo unspecified) ?
103% (inactive)

Quick one: growth for Cc1cc(N2CCCC2)nc(N(CCNc2ccnc3cc(Cl)ccc23)Cc2ccco2)n1 ?
4.55% (active)

Quick one: growth for Cc1ccsc1-c1ccc2c(c1)COC2(CCCN(C)C)c1ccc(F)cc1 (stereo unspecified) ?
63.8% (inactive)

Quick one: growth for N#CC1c2ccccc2-c2ccccc2N1C(=O)c1ccccc1 (stereo unspecified) ?
17% (inactive)

Quick one: growth for CC(=O)Nc1cc(F)cc(C(F)(F)F)c1Cl ?
94.3% (inactive)

Quick one: growth for O=C1CN(c2ccccc2)C(=O)C1C(=O)Nc1ccc(Cl)c(Cl)c1 (stereo unspecified) ?
0.0265% [100 µM] (active)

###

tested on: SK-OV-3 ovarian; assay: NCI-60 one-dose screen, 48 h; details: 10 µM unless noted
About 83,000 compounds went through this panel and 20% of them were active in at least one assay; those are over-represented in the sample as a whole. Activity calls are given as the source filed them. The calls were made as follows: active = growth percent below 10; inactive = the rest.
Your reply should match one of these outcome classes. active, inactive

Recorded call for O=c1[nH]ncc(Br)c1Br ?
inactive

Recorded call for CN(C)c1ccc(N=C2C=CC(=O)C=C2)cc1 ?
inactive

Recorded call for CCCCCCCN(CCCCCCC)C(=N)c1ccnc2ccccc12 ?
inactive

Recorded call for C(=C\c1c[nH]c2ccccc12)/c1ccc2ccccc2n1 ?
inactive

Recorded call for Cc1ccsc1-c1ccc2c(c1)COC2(CCCN(C)C)c1ccc(F)cc1 (centres undefined) ?
inactive

Recorded call for Cn1cc(-c2csc(-c3cn(CCCN4CCCCC4)c4ccc(F)cc34)n2)c2cccnc21 ?
inactive

Recorded call for O=C1c2ccccc2C(=Cc2ccccc2)c2ccccc21 ?
active

Recorded call for C=C(C)[C@@H]1CC[C@]2(C(=O)N3CCN(C)CC3)CC[C@]3(C)[C@H](CC[C@@H]4[C@@]5(C)C/C(=C/c6ccc(C(F)(F)F)cc6)C(=O)C(C)(C)[C@@H]5CC[C@]43C)[C@@H]12 ?
inactive

Recorded call for Oc1ccc(CCC2CCCC(CCc3ccc(OCCF)cc3)N2)cc1 (centres undefined) ?
inactive

Recorded call for N#C/C(=C\c1ccc(-c2ccc(Cl)cc2)o1)c1nc(-c2ccco2)cs1 ?
inactive

Recorded call for N#Cc1c(-c2ccc(O)cc2)c2c(N)nn(-c3ccccc3)c2[nH]c1=O ?
inactive

Recorded call for Oc1cccc2ccc(N/N=C/c3cc(CN4CCCCC4)c(O)c4ncccc34)nc12 ?
active

Recorded call for COc1ccc(-c2cc(/C=C/C(=O)c3ccc(OC)c(OC)c3)[nH]n2)cc1 ?
inactive

Recorded call for O=C(CCCCCn1c2ccccc2c2c3c(c4c5ccccc5[nH]c4c21)C(=O)N(O)C3=O)N1CCOCC1 ?
inactive

Recorded call for CCN1CCN(C(=O)[C@]23CC[C@@H](C)[C@H](C)[C@H]2C2=CC[C@@H]4[C@@]5(C)C/C(=C/c6cccc(OC)c6OC)C(=O)C(C)(C)[C@@H]5CC[C@@]4(C)[C@]2(C)CC3)CC1 ?
inactive

Recorded call for O=[N+]([O-])c1ccc(/C=N\Nc2ccccc2)cc1 ?
inactive

Recorded call for Cc1ccc(-c2nc([P+](c3ccccc3)(c3ccccc3)c3ccccc3)c(N3CCOCC3)o2)cc1 ?
active

Recorded call for COc1ccc(C(=O)/C=C/c2cc(-c3cc(OC)c(OC)c(OC)c3)n[nH]2)cc1OC ?
inactive

Recorded call for COc1cc2c(cc1-c1c(C)noc1C)ncc1nc(C3CC3)n([C@H](C)COC(F)F)c12 ?
active
